- Tested on: MHH-CALL-4;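 note: ALL cell lines in 384-well plates, five doses spanning 10,000-fold, each plate scaled between vehicle and 100 µmol/L benzalkonium chloride controls, sDSS an adapted area-under-curve metric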
- experimental-protocol: selective drug sensitivity score (sDSS, relative to normal bone marrow) (sDSS (score)); higher = more potent and effective on the cell line relative to normal bone marrow cells
- measurement-parameters: 72 h
Listed here are compounds together with their documented selective drug sensitivity score.
Enter a number only.

Record excerpt, results attached:
compound	selective drug sensitivity score
Cc1cc([C@@H](C)Nc2ccccc2C(=O)O)c2nc(N3CCOCC3)cc(=O)n2c1 [AZD-6482] (top concentration 2500 nM)	1.92
O=C(/C=C\n1cnc(-c2cc(C(F)(F)F)cc(C(F)(F)F)c2)n1)NNc1ccccn1 [Verdinexor] (top concentration 1000 nM)	1.84
C[C@H](Nc1ncnc2[nH]cnc12)c1cc2ccc(F)cc2nc1-c1ccccn1 [AMG319] (top concentration 1000 nM)	0.68
CCOc1cc2ncc(C#N)c(Nc3ccc(OCc4ccccn4)c(Cl)c3)c2cc1NC(=O)/C=C/CN(C)C [Neratinib] (top concentration 1000 nM)	-0.22
COc1ccc(C[C@H](NC(=O)[C@H](C)NC(=O)CN2CCOCC2)C(=O)N[C@@H](Cc2ccccc2)C(=O)[C@@]2(C)CO2)cc1 [ONX-0914] (top concentration 10000 nM)	2.9
CO[C@H]1CC[C@H](N2C(=O)CNc3ncc(-c4ccc(C(C)(C)O)nc4)nc32)CC1 [CC-223] (top concentration 10000 nM)	1.52
Clc1ccc(Nc2nnc(Cc3ccncc3)c3ccccc23)cc1 [Vatalanib] (top concentration 10000 nM)	0.1
Cn1cc(C2=C(c3cn(C4CCN(Cc5ccccn5)CC4)c4ccccc34)C(=O)NC2=O)c2ccccc21 [Enzastaurin] (top concentration 10000 nM)	-0.04

Short answer for Nc1nc2[nH]cc(CCc3ccc(C(=O)N[C@@H](CCC(=O)O)C(=O)O)cc3)c2c(=O)[nH]1 [Pemetrexed] (top concentration 10000 nM) : selective drug sensitivity score was 15.2

Short answer for O=C(CCCCCCC(=O)Nc1ccccc1)NO [Vorinostat] (top concentration 10000 nM) : selective drug sensitivity score was 3.9
